Cited source: PubChem BioAssay (NCI)

test system: MDA-N; assay: NCI tumour cell line growth inhibition, 48 h
value-type: TGI (µM)

compound: CCCCCCCCCCCCCCCCn1cc[n+](Cc2ccccc2)c1C
unit-tag: µM
qual: =
observed-result: 1.32
//
compound: CCOC(=O)/C(=C\c1ccc(F)cc1)C(C)=O
unit-tag: µM
qual: >
observed-result: 100
//
compound: CN(c1ccccc1Cl)S(=O)(=O)c1ccccc1[N+](=O)[O-]
unit-tag: µM
qual: >
observed-result: 100
//
compound: NCCCCNC1(c2cc3ccccc3s2)CCCCC1
unit-tag: µM
qual: =
observed-result: 3.39
//
compound: N#Cc1nc(/C=C/c2ccccc2)oc1N
unit-tag: µM
qual: >
observed-result: 100
//
compound: O=C(C#Cc1cn(C2CC(O)C(CO)O2)c(=O)[nH]c1=O)c1ccccc1 (stereo not drawn)
unit-tag: µM
qual: >
observed-result: 100
//
compound: CC[C@@]1(O)C(=O)OCc2c1cc1n(c2=O)Cc2cc3c(NC(=O)CN)cccc3nc2-1
unit-tag: µM
qual: =
observed-result: 46.7
//
compound: O=c1[nH]c2ccccc2c2oc(-c3ccccc3)nc12
unit-tag: µM
qual: =
observed-result: 46.6

---

Collected TGI values appear next to each entry.
test system: COLO 205 colon; assay: NCI tumour cell line growth inhibition, 48 h
value-type: TGI

molecule: COc1ccc(-c2cc(-c3nnc(SCC(=O)Nc4ccc(C(C)=O)cc4)o3)c3ccccc3n2)cc1
test-target: COLO 205 colon
value-type: TGI
observed-result: > 100 µM
--
molecule: Cc1ccccc1C(C(=O)NC1CCCCC1)N(C(=O)Cn1ccnc1C)c1cccc(F)c1 (stereo not drawn)
test-target: COLO 205 colon
value-type: TGI
observed-result: > 100 µM
--
molecule: Cc1cc(N=C2C=C(Nc3cc(C)on3)C(=O)c3ccccc32)no1
test-target: COLO 205 colon
value-type: TGI
observed-result: > 88.3 µM

---

system: ACHN renal; test: NCI tumour cell line growth inhibition, 48 h
value-type: TGI

compound: Cc1cn2c(=O)n(c1=O)Cc1ccccc1C2
observed-result: > 100 µM

compound: Nc1c(S(=O)(=O)O)cc(Nc2cccc(S(=O)(=O)/C=C/S(=O)(=O)O)c2)c2c1C(=O)c1ccccc1C2=O
observed-result: > 100 µM

compound: CCCCCCOc1ccc(NC2=C(Cl)C(=O)c3ncccc3C2=O)cc1
observed-result: > 10 µM

compound: COc1ccc(-c2ccccc2)cc1-c1c(Nc2cc(Cl)cc(Cl)c2O)c(=O)c1=O
observed-result: > 50 µM

compound: O=C(O)c1ccc(Nc2nc3ccccc3nc2C(=O)O)cc1
observed-result: > 100 µM

compound: COc1cc2c(cc1Cl)n([O-])c(C#N)c(N1CCN(c3ccc([N+](=O)[O-])cc3)CC1)[n+]2=O
observed-result: > 77.2 µM

compound: CCN1CCC(CC(=O)Nc2n[nH]c3nc(-c4cccs4)c(Br)cc23)CC1
observed-result: > 25 µM

compound: CCCCCCCCC/C=C1\CC(CO)(COC(=O)c2ccccc2)OC1=O (stereo not drawn)
observed-result: > 100 µM

compound: N#C[C@H]1Nc2ccccc2[C@@H](O)C1O (stereo partly drawn)
observed-result: > 100 µM

compound: O=C(O)/C=C/C(=O)O
observed-result: > 100 µM

compound: CC1(C)N[P+]2(Nc3ccccc3O2)OC1=O (stereo not drawn)
observed-result: > 100 µM

compound: CC(=O)OCC1OC(c2nnc(C)o2)=CC(OC(C)=O)C1OC(C)=O (stereo not drawn)
observed-result: > 100 µM

compound: COc1nc2[nH]ccc2c(=O)n1C
observed-result: > 100 µM
